Ref: paper PMC12346557

- Tested on: Jurkat cells
- protocol description: MTT cytotoxicity assay, Jurkat cells
- Assay type: cell-based, human
- run conditions: Homo sapiens, Jurkat; MTT
readout label: pIC50
pIC50 here: minus log base 10 of the concentration, concentration in moles per litre.

Worked examples follow.
compound | pIC50
COc1ccc(C(=O)/C=C/c2cnc(-c3ccc(Cl)cc3)nc2)cc1 [Compound B-2] | 5.53
Cc1ccc(C(=O)/C=C/c2cnc(-c3ccc(Cl)cc3)nc2)cc1 [Compound B-1] | 5.67

Let us examine a further case.
Problem: Quick check: pIC50 of Cc1ccc(C2=NN(C(N)=S)C(c3cnc(-c4ccc(Cl)cc4)nc3)C2)cc1 (centres unmarked) [Compound B-6] ?
Solution: 4.82

###

- Test system: PBMCs
- protocol description: MTT cytotoxicity assay, PBMCs (healthy)
- Format: cell-based
- run conditions: PBMC
We begin with a simple list: items and their reported pIC50.
pIC50 here: minus log base 10 of the concentration, concentration in moles per litre.

Worked examples follow.
compound | tested system | quantitative result
Cc1ccc(C(=O)/C=C/c2cnc(-c3ccc(Cl)cc3)nc2)cc1 | PBMCs | 3.92
COc1ccc(C(=O)/C=C/c2cnc(-c3ccc(Cl)cc3)nc2)cc1 | PBMCs | 4.16
Cc1ccc(C2=NN(C(N)=S)C(c3cnc(-c4ccc(Cl)cc4)nc3)C2)cc1 (stereo not shown) | PBMCs | 3.95

Let us examine a further case.
Problem: Quick check: pIC50 of CS(=O)(=O)CCNCc1ccc(-c2ccc3ncnc(Nc4ccc(OCc5cccc(F)c5)c(Cl)c4)c3c2)o1 [Lapatinib, lapatinib, reference compound] ?
Solution: 4.96
